molecular target: Prostate-specific antigen (Homo sapiens); experiment: Inhibition of recombinant human semen PSA using Mu-HSSKLQAMC as substrate preincubated for 15 mins followed by substrate addition by fluorescence based assay
Sequence (P07288 whole entry): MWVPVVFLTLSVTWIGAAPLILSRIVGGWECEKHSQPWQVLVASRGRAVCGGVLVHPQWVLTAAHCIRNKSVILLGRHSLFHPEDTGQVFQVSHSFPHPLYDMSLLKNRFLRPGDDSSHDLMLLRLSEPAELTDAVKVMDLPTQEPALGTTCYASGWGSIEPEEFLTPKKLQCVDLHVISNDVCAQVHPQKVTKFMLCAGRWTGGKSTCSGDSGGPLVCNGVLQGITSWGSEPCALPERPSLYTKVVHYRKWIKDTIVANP
MEASURED QUANTITY: pKi
The quantity pKi is defined as the negative base-10 logarithm of the molar concentration.

Prompt: Consider the compound `COc1ccc(C(=O)n2nc(-c3ccncc3)cc2N)cc1OC` and give its measured pKi.
Completion: 3.98

Prompt: `COc1ccc(-c2cc(N)n(C(=O)c3cc(OC)c(OC)c(OC)c3)n2)cn1` , same question.
Completion: 3.44

Prompt: Also `COc1ccc(CC(=O)n2nc(-c3cccnc3)nc2N)cc1OC` , if possible.
Completion: 3.51
